Reported pKi against Substance-P receptor (Homo sapiens, UniProt P25103), gathered from multiple publications, appears below.
Scale: pKi equals -log10([C]), with [C] in mol/L.

Consider CN1CCN(C(C(=O)N(C)CCc2cc(C(F)(F)F)cc(C(F)(F)F)c2)c2ccccc2)CC1 (stereo not drawn) . Its measured pKi is 8.96

Consider Cc1nsc(-c2nnc3n2CCN(C(=O)c2ccc(Cl)c(F)c2)[C@@H]3C)n1 . Its measured pKi is 4.70

Consider CN(CCc1ccc(C(F)(F)F)cc1C(F)(F)F)C(=O)C(c1ccccc1)N1CCC(N2CCCCC2)CC1 (stereo not drawn) . Its measured pKi is 7.93

Consider CN(CCc1cc(C(F)(F)F)cc(C(F)(F)F)c1)C(=O)C(c1ccccc1)N1CCN(c2ncccn2)CC1 (stereo not drawn) . Its measured pKi is 7.72

Consider CC(C)N1CCN(C(C(=O)N(C)CCc2cc(C(F)(F)F)cc(C(F)(F)F)c2)c2cccc3c2OCO3)CC1 (stereo not drawn) . Its measured pKi is 8.70

Consider CN(CCc1cc(C(F)(F)F)cc(C(F)(F)F)c1)C(=O)C(c1ccccc1)N1CCN(CCc2ccccc2)CC1 (stereo not drawn) . Its measured pKi is 8.04

Consider C/N=C(\NC)N1CCN(C(C(=O)N(C)CCc2cc(C(F)(F)F)cc(C(F)(F)F)c2)c2ccccc2)CC1 (stereo not drawn) . Its measured pKi is 9.85

Consider CN(C)C(=N)N1CCN(C(C(=O)N(C)CCc2cc(C(F)(F)F)cc(C(F)(F)F)c2)c2ccccc2)CC1 (stereo not drawn) . Its measured pKi is 9.92

Consider C[C@@H](OC[C@@]1(c2ccccc2)CC[C@]2(COC(N)=O)CN1CC(=O)N2)c1cc(C(F)(F)F)cc(C(F)(F)F)c1 . Its measured pKi is 10.05

Consider CN(CCc1cc(C(F)(F)F)cc(C(F)(F)F)c1)C(=O)C(c1ccccc1)N1CCC(N(C)C)CC1 (stereo not drawn) . Its measured pKi is 8.82

Consider CO/N=C(\CN(C)C(=O)c1cc(Cl)cc(Cl)c1)[C@H](CCN1CCC(N2CCCN(CC(=O)N3CCOCC3)C2=O)CC1)c1ccc(Cl)c(Cl)c1 . Its measured pKi is 9.00

----------
Reported Ki against Substance-P receptor (Homo sapiens, UniProt P25103), gathered from multiple publications, appears below.
The reply should be a number in nM, with the unit left off.

Consider C[C@@H](OC[C@@]1(c2ccccc2)CC[C@]2(CO)CN1CC(=O)O2)c1cc(C(F)(F)F)cc(C(F)(F)F)c1 . Its measured Ki is 0.16

Consider CO/N=C(\CN(C)C(=O)c1cc(Cl)cc(Cl)c1)C(CCN1CCC(N2CCNCC2=O)CC1)c1ccc(Cl)c(Cl)c1 (stereo not shown) . Its measured Ki is 1.1

Consider CN(CCc1cc(C(F)(F)F)cc(C(F)(F)F)c1)C(=O)C(c1ccccc1)N1CCC(N)CC1 (stereo not shown) . Its measured Ki is 7.75

Consider CN(CCc1cc(C(F)(F)F)cc(C(F)(F)F)c1)C(=O)C(c1ccccc1)N1CCC(N2CCCCC2)CC1 (stereo not shown) . Its measured Ki is 1.3

----------
Reported Ki against UniProtKB P25103, gathered from multiple publications, appears below.
The reply should be a number in nM, with the unit left off.

Consider CN(CCc1cc(C(F)(F)F)cc(C(F)(F)F)c1)C(=O)C(c1ccccc1)N1CCN(/C(=N\C2CCCCC2)N(C)C2CCCCC2)CC1 (stereo not shown) . Its measured Ki is 0.88

Consider CNC(=N)N1CCN(C(C(=O)N(C)CCc2cc(C(F)(F)F)cc(C(F)(F)F)c2)c2ccccc2)CC1 (stereo not shown) . Its measured Ki is 0.2

Consider Cc1nsc(-c2nnc3n2CCN(C(=O)c2ccc(F)cc2)[C@@H]3CCO)n1 . Its measured Ki is 22000

Consider CC(C)N1CCN(C(C(=O)NC(C)(C)Cc2cc(C(F)(F)F)cc(C(F)(F)F)c2)c2ccccc2)CC1 (stereo not shown) . Its measured Ki is 7.4

Consider CN(CCc1cc(C(F)(F)F)cc(C(F)(F)F)c1)C(=O)[C@H](c1ccccc1)N1CCC(N2CCCOC2=O)CC1 . Its measured Ki is 1.7

Consider CN(CCc1cc(C(F)(F)F)cc(C(F)(F)F)c1)C(=O)C(c1ccc(Cl)c(Cl)c1)N1CCC(N2CCCCC2)CC1 (stereo not shown) . Its measured Ki is 4.2

----------
Reported log10 Ki against Substance-P receptor (Homo sapiens, UniProt P25103), gathered from multiple publications, appears below.
Hello, just confirming the data are log10 of Ki with units of nM.

Consider Cc1nsc(-c2nnc3n2CCN(C(=O)c2ccc(Cl)c(Cl)c2)[C@@H]3C)n1 . Its measured log10 Ki is 4.01

Consider CC1CC(=O)N(C)C(=O)N1C1CCN([C@H](C(=O)N(C)CCc2cc(C(F)(F)F)cc(C(F)(F)F)c2)c2ccccc2)CC1 (stereo partly drawn) . Its measured log10 Ki is -0.22

Consider CN(CCc1cc(C(F)(F)F)cc(C(F)(F)F)c1)C(=O)C(c1ccccc1)N1CCC(NCC(=O)N2CCOCC2)CC1 (stereo not drawn) . Its measured log10 Ki is 0.40

Consider CN(CCc1cc(C(F)(F)F)cc(C(F)(F)F)c1)C(=O)C(c1ccccc1)N1CCC(N2CCCC2)CC1 (stereo not drawn) . Its measured log10 Ki is 0.20

Consider CCN/C(=N/C(C)(C)C)N1CCN(C(C(=O)N(C)CCc2cc(C(F)(F)F)cc(C(F)(F)F)c2)c2ccccc2)CC1 (stereo not drawn) . Its measured log10 Ki is 0.80

Consider CC(=O)C[C@]1(n2cn[nH]c2=O)CC[C@@](CO[C@H](C)c2cc(C(F)(F)F)cc(C(F)(F)F)c2)(c2ccccc2)NC1 . Its measured log10 Ki is -0.27

Consider CCN(CCc1cc(C(F)(F)F)cc(C(F)(F)F)c1)C(=O)C(c1ccccc1)N1CCC(N2CCCCC2)CC1 (stereo not drawn) . Its measured log10 Ki is 0.23

Consider CN(CCc1cc(C(F)(F)F)cc(C(F)(F)F)c1)C(=O)C(c1ccccc1)N1CCC(N2CCC(N3CCCCC3)CC2)CC1 (stereo not drawn) . Its measured log10 Ki is 0.38

Consider CN(CCc1cc(C(F)(F)F)cc(C(F)(F)F)c1)C(=O)C(c1ccccc1)N1CCC(N(C)CCCCO)CC1 (stereo not drawn) . Its measured log10 Ki is 0.30

Consider CN(Cc1cc(C(F)(F)F)cc(C(F)(F)F)c1)C(=O)C(c1ccccc1)N1CCN(C2CCCCC2)CC1 (stereo not drawn) . Its measured log10 Ki is 0.00

Consider CN(CCc1cc(C(F)(F)F)cc(C(F)(F)F)c1)C(=O)C(c1ccccc1)N1CCN(C2CCC2)CC1 (stereo not drawn) . Its measured log10 Ki is 0.18

----------
Reported pKi against Substance-P receptor (Homo sapiens, UniProt P25103), gathered from multiple publications, appears below.
Scale: pKi equals -log10([C]), with [C] in mol/L.

Reported pKi (Substance-P receptor (Homo sapiens, UniProt P25103)) for entry CC(C)N1CCN(C(C(=O)N(C)CCc2cc(C(F)(F)F)cc(C(F)(F)F)c2)c2ccccc2)CC1=O (stereo not drawn) is 8.89

Reported pKi (Substance-P receptor (Homo sapiens, UniProt P25103)) for entry CN(C)CCN1CCN(C(C(=O)N(C)CCc2cc(C(F)(F)F)cc(C(F)(F)F)c2)c2ccccc2)CC1 (stereo not drawn) is 8.89

Reported pKi (Substance-P receptor (Homo sapiens, UniProt P25103)) for entry CC(C)NC1CCN(C(C(=O)N(C)CCc2cc(C(F)(F)F)cc(C(F)(F)F)c2)c2ccccc2)CC1 (stereo not drawn) is 8.70

Reported pKi (Substance-P receptor (Homo sapiens, UniProt P25103)) for entry C[C@@H](OC[C@@]1(c2ccccc2)CCC2OC(=O)NC2N1)c1cc(C(F)(F)F)cc(C(F)(F)F)c1 (single isomer, unassigned) is 9.21

Reported pKi (Substance-P receptor (Homo sapiens, UniProt P25103)) for entry COc1ccc(C(C(=O)N(C)CCc2cc(C(F)(F)F)cc(C(F)(F)F)c2)N2CCNCC2)cc1OC (stereo not drawn) is 8.77

Reported pKi (Substance-P receptor (Homo sapiens, UniProt P25103)) for entry CN(CCc1cc(C(F)(F)F)cc(C(F)(F)F)c1)C(=O)C(c1ccccc1)N1CCNCC1 (stereo not drawn) is 9.00

Reported pKi (Substance-P receptor (Homo sapiens, UniProt P25103)) for entry CCC(C)[C@H](NC(=O)Cc1ccccc1F)C(=O)N[C@]1(C(=O)N[C@H](C(N)=S)C(C)CC)CCc2[nH]c3c(Cl)cc(F)cc3c2C1 (stereo partly drawn) is 6.19

Reported pKi (Substance-P receptor (Homo sapiens, UniProt P25103)) for entry C[C@@H](OC[C@@]1(c2ccccc2)CC[C@@]2(NC(N)=O)CCCN1C2)c1cc(C(F)(F)F)cc(C(F)(F)F)c1 is 9.92

Reported pKi (Substance-P receptor (Homo sapiens, UniProt P25103)) for entry Cc1nsc(-c2nnc3n2CCN(C(=O)c2ccc(F)c(Cl)c2)[C@@H]3C)n1 is 4.66

Reported pKi (Substance-P receptor (Homo sapiens, UniProt P25103)) for entry C[C@@H](OC[C@@]1(c2ccccc2)CC[C@@H]2NC(=O)NCC2N1)c1cc(C(F)(F)F)cc(C(F)(F)F)c1 (stereo partly drawn) is 9.44
